Target: Rat brain protein farnesyltransferase (Rattus norvegicus, UniProt Q02293+Q04631)
Construct: Rat brain protein farnesyltransferase activity is measured; from tissue; host or cells: rat brain
Sequence (Q02293 whole entry, one chain of several): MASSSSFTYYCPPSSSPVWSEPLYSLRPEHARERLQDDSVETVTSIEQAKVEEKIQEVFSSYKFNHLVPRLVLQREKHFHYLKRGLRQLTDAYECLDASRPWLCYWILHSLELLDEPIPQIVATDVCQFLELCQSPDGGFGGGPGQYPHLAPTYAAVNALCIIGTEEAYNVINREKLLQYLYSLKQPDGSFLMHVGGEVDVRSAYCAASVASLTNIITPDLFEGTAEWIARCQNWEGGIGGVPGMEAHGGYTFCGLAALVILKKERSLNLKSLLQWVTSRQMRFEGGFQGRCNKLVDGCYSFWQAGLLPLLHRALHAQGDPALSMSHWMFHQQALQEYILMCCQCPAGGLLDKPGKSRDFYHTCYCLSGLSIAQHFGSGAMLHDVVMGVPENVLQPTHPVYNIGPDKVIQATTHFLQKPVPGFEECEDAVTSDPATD
Assay: % inhibition of farnesylation, scintillation proximity assay with biotin-K Ras B fragment
Format: biochemical
Settings: Table 2; 1 × 10^-6 M
Entries and their measured % inhibition at 1 × 10^-6 M follow.
Answer with a number only, understood to be in %.

Illustrative cases are given below, each with its answer.
- compound: "CSCC[C@H](NC(=O)c1ccc(CN2C(=O)OC[C@@H]2CC2CCCCC2)cc1-c1ccccc1C)C(=O)O"
  % inhibition at 1 × 10^-6 M, %: 99
- compound: "CSCC[C@H](NC(=O)c1ccc(CN(CC(c2ccccc2)c2ccccc2)c2ccccc2)cc1-c1ccccc1C)C(=O)O"
  % inhibition at 1 × 10^-6 M, %: 77
- compound: "CSCCC(NC(=O)c1ccc(NC(=O)C2CCCNC2)cc1-c1ccccc1)C(=O)O (stereo not drawn)"
  % inhibition at 1 × 10^-6 M, %: 50
- compound: "CSCC[C@H](NC(=O)c1ccc(CNc2ccccc2N2CCCCC2)cc1-c1ccccc1)C(=O)O"
  % inhibition at 1 × 10^-6 M, %: 59
- compound: "CSCC[C@H](NC(=O)c1ccc(CN[C@H](/C=C\\CC(C)C)CC2CCCCC2)cc1-c1ccccc1)C(=O)O"
  % inhibition at 1 × 10^-6 M, %: 82
- compound: "CSCC[C@H](NC(=O)c1ccc(CNCC(O)c2cccc(O)c2)cc1-c1ccccc1)C(=O)O (stereo partly drawn)"
  % inhibition at 1 × 10^-6 M, %: 45

Note to self: % inhibition at 1 × 10^-6 M recorded for CSCC[C@H](NC(=O)c1ccc(CNC(CO)Cc2ccc(Cl)cc2)cc1-c1ccccc1)C(=O)O (stereo partly drawn) was 68

Please fill in: % inhibition at 1 × 10^-6 M reported for `CCOC(=O)N1CCC(NCc2ccc(C(=O)N[C@@H](CCSC)C(=O)[O-])c(-c3ccccc3C)c2)CC1.[Li+]` = 72

The compound listed as `CSCC[C@H](NC(=O)c1ccc(CN[C@H](C)CC2CCCCC2)cc1-c1ccccc1C)C(=O)O` shows % inhibition at 1 × 10^-6 M equal to 97

Noted for `CSCC[C@H](NC(=O)c1ccc(CN2CCN(C(=O)OC(C)(C)C)CC2)cc1-c1ccccc1C)C(=O)O` : its % inhibition at 1 × 10^-6 M reads 62

Query `CSCC[C@H](NC(=O)c1ccc(/C=C/c2ccc(Oc3ccccc3)nn2)cc1-c1ccccc1C)C(=O)O` yields % inhibition at 1 × 10^-6 M of 89

// field: % inhibition at 1 × 10^-6 M; key: `CSCC[C@H](NC(=O)c1ccc(NC(=O)c2cnccc2C(F)(F)F)cc1-c1ccccc1C)C(=O)O` ; value = 95

---

Molecular target: Rat brain protein farnesyltransferase (Rattus norvegicus, UniProt Q02293+Q04631)
Construct: Rat brain protein farnesyltransferase activity is measured; from tissue; host or cells: rat brain
Experiment: % inhibition of farnesylation, scintillation proximity assay with biotin-K Ras B fragment
Assay type: biochemical
Details: Table 3; 1 × 10^-7 M
parameter measured: % inhibition at 1 × 10^-7 M (%)
Report the value in % with no unit label.

Sample answers from the record:
- smiles str: "CCSC[C@H](CC(C)C)N(C)Cc1ccc(C(=O)N[C@@H](CCSC)C(=O)O)c(-c2ccccc2C)c1"
  target desc: "Rat brain protein farnesyltransferase (Rattus norvegicus, UniProt Q02293+Q04631)"
  % inhibition at 1 × 10^-7 M (%): 88
- smiles str: "CSCC[C@H](NC(=O)c1ccc(CN(c2ccccc2)S(=O)(=O)c2ccccc2)cc1-c1ccccc1C)C(=O)O"
  target desc: "Rat brain protein farnesyltransferase (Rattus norvegicus, UniProt Q02293+Q04631)"
  % inhibition at 1 × 10^-7 M (%): 90
- smiles str: "CSCC[C@H](NC(=O)c1ccc(CN[C@@H](CO)CC2CCCCC2)cc1-c1ccccc1C)C(=O)O"
  target desc: "Rat brain protein farnesyltransferase (Rattus norvegicus, UniProt Q02293+Q04631)"
  % inhibition at 1 × 10^-7 M (%): 89
- smiles str: "CSCC[C@H](NC(=O)c1ccc(CCc2cccc(Oc3ccccc3)c2)cc1-c1ccccc1C)C(=O)[O-].[Li+]"
  target desc: "Rat brain protein farnesyltransferase (Rattus norvegicus, UniProt Q02293+Q04631)"
  % inhibition at 1 × 10^-7 M (%): 92

The measured % inhibition at 1 × 10^-7 M associated with `CSCC[C@H](NC(=O)c1ccc(CNCC(=O)N(Cc2ccccc2)Cc2ccccc2)cc1-c1ccccc1C)C(=O)O` reads 91

Value of % inhibition at 1 × 10^-7 M reported for the molecule `CSCC[C@H](NC(=O)c1ccc(CCc2ccc(Oc3ccccc3N)cc2)cc1-c1ccccc1C)C(=O)O` is 92

---

Target: Rat brain protein farnesyltransferase (Rattus norvegicus, UniProt Q02293+Q04631)
Construct: Rat brain protein farnesyltransferase activity is measured; from tissue; host or cells: rat brain
Assay: % inhibition of farnesylation, scintillation proximity assay with biotin-K Ras B fragment
Format: biochemical
Conditions: Table 3; 1 × 10^-7 M
This section presents compounds with their documented % inhibition at 1 × 10^-7 M values.
Please provide the amount together with its unit, number first.

- compound: "CCCCN(CCCC)C(=O)CN(C)Cc1ccc(C(=O)N[C@@H](CCSC)C(=O)O)c(-c2ccccc2C)c1"
  target desc: "Rat brain protein farnesyltransferase (Rattus norvegicus, UniProt Q02293+Q04631)"
  % inhibition at 1 × 10^-7 M: "89%"

% inhibition at 1 × 10^-7 M recorded for this compound, CSCC[C@H](NC(=O)c1ccc(CNC(CC2CCCCC2)C2CCCCC2)cc1-c1ccccc1C)C(=O)[O-].[Li+] (some centres unmarked) , is 95%

Measured % inhibition at 1 × 10^-7 M of `CSCC[C@H](NC(=O)c1ccc(CCc2ccc(Oc3cccc(Cl)c3)cc2)cc1-c1ccccc1C)C(=O)O` : 86%

// sample `CSCC[C@H](NC(=O)c1ccc(CCc2ccc(Oc3ccccc3)cc2)cc1-c1ccccc1C)C(=O)[O-].[Li+]` , its % inhibition at 1 × 10^-7 M was 91%

Field % inhibition at 1 × 10^-7 M (entry `CSCC[C@H](NC(=O)c1ccc(CN(c2ccccc2)S(=O)(=O)c2ccc(C)cc2)cc1-c1ccccc1C)C(=O)O` ) reads 91%

---

Molecular target: Rat brain protein farnesyltransferase (Rattus norvegicus, UniProt Q02293+Q04631)
Construct: Rat brain protein farnesyltransferase activity is measured; from tissue; host or cells: rat brain
Assay: % inhibition of farnesylation, scintillation proximity assay with biotin-K Ras B fragment
Type: biochemical
Conditions: read-out: % inhibition at 1 × 10^-7 M
Where a name gives a salt, the structure may show the parent alone.
inhibition at 0.1 µM: recorded values
Respond numerically; units are % and should not be typed.

- compound: "CSCC[C@H](NC(=O)c1ccc(COCc2ccc(Cl)cc2)cc1-c1ccccc1C)C(=O)O [Example 933, lithium salt]"
  inhibition at 0.1 µM / %: 91
- compound: "COc1ccc(-c2ccc(COCc3ccc(C(=O)N[C@@H](CCSC)C(=O)O)c(-c4ccccc4C)c3)o2)cc1 [Example 446, lithium salt]"
  inhibition at 0.1 µM / %: 91
- compound: "CSCC[C@H](NC(=O)c1ccc(COCc2cccc(C)c2)cc1-c1ccccc1C)C(=O)O [Example 578, lithium salt]"
  inhibition at 0.1 µM / %: 90

Per the records, this compound ( CSCC[C@H](NC(=O)c1ccc(COCc2cncs2)cc1-c1ccccc1C)C(=O)O [Example 539, lithium salt] ) has inhibition at 0.1 µM equal to 89

Summary for this compound, CSCC[C@H](NC(=O)c1ccc(COCc2ccc(-c3ccc(F)cc3)o2)cc1-c1ccc(F)cc1Cl)C(=O)O [Example 869, lithium salt] : inhibition at 0.1 µM is 92

The compound listed as CSCC[C@H](NC(=O)c1ccc(COCc2cnc(-c3ccc(Cl)cc3)o2)cc1-c1ccccc1C)C(=O)O [Example 894, lithium salt] shows inhibition at 0.1 µM equal to 89

---

Listing of recorded inhibition at 0.1 µM by entry.
Target: Rat brain protein farnesyltransferase (Rattus norvegicus, UniProt Q02293+Q04631)
Construct: Rat brain protein farnesyltransferase activity is measured; from tissue; host or cells: rat brain
Experiment: % inhibition of farnesylation, scintillation proximity assay with biotin-K Ras B fragment
Format: biochemical
Settings: read-out: % inhibition at 0.1 μM (*); Table 6; * footnote 0.1 μM (title: 0.1 mM)
Where a name gives a salt, the structure may show the parent alone.
Report the value in % with no unit label.

Worked examples, 2 compounds total:
- compound: "CSCC[C@H](NC(=O)c1ccc(COCCc2cccc(F)c2)cc1-c1ccccc1C)C(=O)O [Example 1274]"
  target desc: "Rat brain protein farnesyltransferase (Rattus norvegicus, UniProt Q02293+Q04631)"
  inhibition at 0.1 µM, %: 89
- compound: "CSCC[C@H](NC(=O)c1ccc(COCc2ccccc2CO)cc1-c1ccccc1C)C(=O)O [Example 1043, lithium salt]"
  target desc: "Rat brain protein farnesyltransferase (Rattus norvegicus, UniProt Q02293+Q04631)"
  inhibition at 0.1 µM, %: 90

Record CSCC[C@H](NC(=O)c1ccc(COCc2cccc(CO)c2)cc1-c1ccccc1C)C(=O)O [Example 1044, lithium salt] has Rat brain protein farnesyltransferase (Rattus norvegicus, UniProt Q02293+Q04631) inhibition at 0.1 µM equal to 76

Entry CCCCC(OCc1ccc(C(=O)N[C@@H](CCSC)C(=O)O)c(-c2ccccc2C)c1)C1CCOCC1 (some centres unmarked) [Example 1282, lithium salt] : inhibition at 0.1 µM on Rat brain protein farnesyltransferase (Rattus norvegicus, UniProt Q02293+Q04631) = 69

Item: CSCC[C@H](NC(=O)c1ccc(COC(Cc2ccccc2)C2CCN(S(=O)(=O)c3ccccc3)CC2)cc1-c1ccccc1C)C(=O)O (some centres unmarked) [Example 1253, lithium salt] | System: Rat brain protein farnesyltransferase (Rattus norvegicus, UniProt Q02293+Q04631) | inhibition at 0.1 µM: 76

Observed inhibition at 0.1 µM on Rat brain protein farnesyltransferase (Rattus norvegicus, UniProt Q02293+Q04631), entry CCCCC(CCC1CCCCC1)OCc1ccc(C(=O)N[C@@H](CCSC)C(=O)O)c(-c2ccccc2C)c1 (some centres unmarked) [Example 1192] , equals 91

Tested system Rat brain protein farnesyltransferase (Rattus norvegicus, UniProt Q02293+Q04631); inhibition at 0.1 µM recorded for COc1ccc(CO[C@H](COCc2ccc(C(=O)N[C@@H](CCSC)C(=O)O)c(-c3ccccc3C)c2)CC2CCCCC2)cc1 [Example 1316, Lithium Salt] was 78

Form: item CSCC[C@H](NC(=O)c1ccc(CCC(=O)OCC2CCCCC2)cc1-c1ccccc1C)C(=O)O [Example 1153] ; test system Rat brain protein farnesyltransferase (Rattus norvegicus, UniProt Q02293+Q04631); inhibition at 0.1 µM: 89

Case CSCC[C@H](NC(=O)c1ccc(COC(CCC2CCCCC2)c2ncnn2C)cc1-c1ccccc1C)C(=O)O (some centres unmarked) [Example 1224, lithium salt] , Rat brain protein farnesyltransferase (Rattus norvegicus, UniProt Q02293+Q04631), inhibition at 0.1 µM recorded as 88

inhibition at 0.1 µM of CSCC[C@H](NC(=O)c1ccc(COC(c2ccccc2)C2CCN(S(=O)(=O)c3ccccc3)CC2)cc1-c1ccccc1C)C(=O)O (some centres unmarked) [Example 1252, lithium salt] , assay on Rat brain protein farnesyltransferase (Rattus norvegicus, UniProt Q02293+Q04631), is 84

Record CCCC[C@@H](COCc1ccc(C(=O)N[C@@H](CCSC)C(=O)O)c(-c2ccccc2C)c1)CC1CCCCC1 [Example 1315, Lithium Salt] / Rat brain protein farnesyltransferase (Rattus norvegicus, UniProt Q02293+Q04631), inhibition at 0.1 µM recorded as 86
